Cited source for all entries: patent US10774071B2

biological target: PD-L1 (Homo sapiens (Human)); assay: PD-L1/PD-L1 dimerization biochemical protein-protein interaction assay (ALPHA); format: binding; conditions: 0.5 nM His tagged PD-L1 and 0.5 nM FLAG tagged PD-L1, Table 4B, read-out: AC50 PDL1 Dimer 1 nM
Sequence (Q9NZQ7 19-238): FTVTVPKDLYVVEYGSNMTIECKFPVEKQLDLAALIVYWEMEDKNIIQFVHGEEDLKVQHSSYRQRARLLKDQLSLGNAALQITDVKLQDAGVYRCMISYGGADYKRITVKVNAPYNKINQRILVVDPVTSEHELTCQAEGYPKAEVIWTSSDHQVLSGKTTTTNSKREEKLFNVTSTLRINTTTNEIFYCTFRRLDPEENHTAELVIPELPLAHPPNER
Sequence (Q9NZQ7 19-238): as above
attribute measured: AC50 (nM)
Give your result in nM as a bare value.

Ask: Which AC50 value belongs to `COc1nc(O[C@H]2CCc3c(-c4cccc(-c5cc(C)c(CNC[C@@H]6CCC(=O)N6)c(OC)n5)c4Cl)cccc32)c(C)cc1CNC(C)(C)C(=O)O` ?
Result: 15.8

Ask: Which AC50 value belongs to `COc1nc(O[C@H]2CCc3c(-c4cccc(-c5cc(F)c(CNC[C@@H]6CCC(=O)N6)c(OC)n5)c4Cl)cccc32)c(C(F)(F)F)cc1CNC1(C(=O)O)CC1` ?
Result: 9.85

Ask: Which AC50 value belongs to COc1nc(O[C@H]2CCc3c(-c4cccc(-c5cnc(CNC[C@@H]6CCC(=O)N6)c(OC)n5)c4Cl)cccc32)c(Cl)cc1CNC1CC(NC(C)=O)C1 (stereo partly shown) ?
Result: 22.3

Ask: Which AC50 value belongs to `COc1nc(O[C@H]2CCc3c(-c4cccc(-c5ccc(CNC[C@@H]6CCC(=O)N6)c(OC)c5F)c4Cl)cccc32)c(Cl)cc1CN1CC[C@@H](C(=O)O)C1` ?
Result: 42.1
